Value source: PubChem BioAssay (EPA / NIEHS)

assay: BSK_3C_TissueFactor: BioMAP Diversity Plus: 3C Assay for Tissue Factor Biomarker Activity (AID 2282997); settings: BioMAP 3C HUVEC, tissue factor biomarker readout; actives raise or lower the signal
Activity calls are given as the source filed them. Rule for the calls: active = hit-call score of the fitted dose curve at least 0.9, where 1 is the maximum; inactive = score below 0.9.
Outcome (select one): active, inactive

// query Outcome? CCOP(=S)(OCC)SCS(=O)(=O)C(C)(C)C
// result inactive

// query Query: recorded result category for CC(C)(COCC1CO1)COCC1CO1 (centres undefined) in this test
// result active

// query What did the test return for N#CCCC(Br)(C#N)CBr (centres undefined) ?
// result active

// query Test call for this compound, please: Cc1cc(Cl)ccc1OC(C)C(=O)O (centres undefined)
// result inactive

// query State the result this test recorded for Cc1cc(C(C)(C)c2ccc(O)c(C)c2)ccc1O .
// result active

// query How did this test come out for c1ccc2sc(SNC3CCCCC3)nc2c1 ?
// result active

// query Could you please tell me the result logged for CCN(CC)C(=O)C(Cl)=C(C)OP(=O)(OC)OC in this assay?
// result inactive

// query Hi, sorry to bother you, what did the test record for C=CC(Cl)CCl (centres undefined) ?
// result active

// query Please state the recorded outcome for this compound: CCCCCCCCCCCCN(C)C
// result inactive

// query For this compound, state the assay outcome: C#CCOC(=O)/C=C(C)/C=C/CC(C)CCCC(C)C (centres undefined)
// result inactive

// query Each compound tested received a call. Report the one for Oc1cccc(-c2ccccc2)c1 .
// result inactive

// query Dear all, I need the recorded test outcome for C[C@]12CC[C@@H](O)C[C@@H]1CC[C@@H]1[C@@H]2CC[C@]2(C)C(=O)CC[C@@H]12 , thank you.
// result inactive

// query Each compound tested received a call. Report the one for CCOP(=S)(OCC)OP(=S)(OCC)OCC .
// result inactive

// query Hi, do you know how Cc1cc(C)cc(C)c1 came out in this test?
// result inactive
